EXPERIMENT_DESCRIPTION: chemical genetic growth profiling, strain panel (AID 1159580);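 note: tested at 20 µM; growth read once vehicle control cultures reached saturation at 30 °C; 1 = growth at the plate median or of vehicle wells; lower values mean less growth of the strain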
PARTICULARS: S. cerevisiae deletion strains, growth OD, locus YML120C, strain ndi1, hits give low values
Out of some 5,500 compounds screened, about 2,000 (36%) were called active. Not shown: some 18% with an inconclusive outcome. This is one part of the list.
Provide the recorded normalized growth for the entries that follow.

Record request: normalized growth value, item "CNC(=O)O/N=C\C(C)(C)SC"
1.01 (inactive)

Record request: normalized growth value, item "Nc1c2c(nc3ccccc13)CCCC2"
1 (inactive)

Record request: normalized growth value, item "Nc1ccc(S(=O)(=O)Nc2ccnn2-c2ccccc2)cc1"
0.99 (inactive)

Record request: normalized growth value, item "O=c1ccc2ccc(O)cc2o1"
1.01 (inactive)

* * *

EXPERIMENT_DESCRIPTION: chemical genetic growth profiling, strain panel (AID 1159580);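 note: tested at 20 µM; growth read once vehicle control cultures reached saturation at 30 °C; 1 = growth at the plate median or of vehicle wells; lower values mean less growth of the strain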
PARTICULARS: S. cerevisiae strains, growth OD, strain wild type, hits give low values
The campaign covered roughly 5,500 compounds. About 2,000 (36%) were called active. Inconclusive results (about 18%) are left out. The list shows a part of the results. Where a SMILES comes first, the peptide text is derived from it. The star is where a group is joined. For = O=C*
MEASUREMENT_KIND: normalized growth
I'd appreciate a reply containing only the number, no unit.

Record request: normalized growth value, item "Cc1cc(=O)[nH]c(-c2ccccn2)n1"
1.01

Record request: normalized growth value, item Cc1ccc(S(=O)(=O)NC(=O)NN2CC3CCCC3C2)cc1 (stereo unspecified)
0.997

Record request: normalized growth value, item "Cc1nn(C)c(C)c1NS(=O)(=O)c1cc(Cl)sc1Cl"
1.02

Record request: normalized growth value, item "O=C(NC1Cc2ccccc2C1)c1cncc(Br)c1"
0.988

Record request: normalized growth value, item "COC(=O)Nc1nc2ccc(Sc3ccccc3)cc2[nH]1"
0.997

Record request: normalized growth value, item "Cc1ccnc(NS(=O)(=O)c2ccc(N)cc2)n1"
0.999

Record request: normalized growth value, item "Cn1c(CSCC(=O)Nc2ccccc2)n[nH]c1=S"
0.981

Record request: normalized growth value, item "Cc1cc(=O)n2[nH]cc(C#N)c2n1"
0.993

Record request: normalized growth value, item "S=c1[nH]nc(SCCSc2n[nH]c(=S)s2)s1"
0.988

Record request: normalized growth value, item CC(OCc1ccccc1)C(NC(=O)OC(C)(C)C)C(N)=O (stereo unspecified)
0.971

Record request: normalized growth value, item "O=[N+]([O-])c1ccccc1SCc1n[nH]c(=S)n1-c1cccc(C(F)(F)F)c1"
0.975

Record request: normalized growth value, item "Nc1ccc(S(=O)(=O)Nc2cnc3ccccc3n2)cc1"
0.986

Record request: normalized growth value, item "Nc1ccc(-n2nc(C(F)(F)F)cc2C(F)(F)F)cc1"
0.974

Record request: normalized growth value, item NC(Cc1c[nH]c2ccccc12)C(=O)O (stereo unspecified)
0.997

Record request: normalized growth value, item N#CC(O[C@@H]1O[C@H](CO[C@@H]2O[C@H](CO)[C@@H](O)[C@H](O)[C@H]2O)[C@@H](O)[C@H](O)[C@H]1O)c1ccccc1 (stereo partly specified)
1.02

Record request: normalized growth value, item "CNC(=O)O/N=C\C(C)(C)SC"
1

Record request: normalized growth value, item "O=C(O)/C=C/C(=O)Nc1ccc(-n2nc(C(F)(F)F)cc2C(F)(F)F)cc1"
1.02

Record request: normalized growth value, item "CC(=O)NCc1c(I)c(NC(C)=O)c(I)c(C(=O)O)c1I"
1

Record request: normalized growth value, item CSCCC(NC=O)C(=O)NC(Cc1ccccc1)C(=O)O (stereo not drawn) (For-Met-Phe-OH; configuration not given here)
1.01

Record request: normalized growth value, item "COc1cc(OC)nc(N)n1"
0.985

Record request: normalized growth value, item "COc1ccc2c(c1)c(CC(=O)O)c(C)n2C(=O)c1ccc(Cl)cc1"
1

Record request: normalized growth value, item CC(=O)O[C@H]1CC[C@@]2(C)C(CC[C@]3(C)C2C(=O)C=C2C4[C@@H](C)[C@H](C)CC[C@]4(C(=O)O)CC[C@]23C)C1(C)C (stereo partly specified)
1

Record request: normalized growth value, item "COc1ccc2[nH]cc(CCN)c2c1"
0.984

Record request: normalized growth value, item "O=S(=O)(CCN1CCOCC1)c1ccc(Cl)cc1"
0.976

Record request: normalized growth value, item "O=C(COc1ccc2c(c1)OCO2)N1CCN(c2ncc(C(F)(F)F)cc2Cl)CC1"
0.985

Record request: normalized growth value, item "C/C=C(/C)C(=O)O[C@H]1CC[C@@]2(C)[C@@H]3CC[C@H]4[C@]5(O)C[C@H](O)[C@@]6(O)[C@@H](CN7C[C@@H](C)CC[C@H]7[C@@]6(C)O)[C@]5(O)C[C@@]42O[C@]13O"
1.01

Record request: normalized growth value, item C#C[C@]1(O)CCC2C3CCC4=CC(=O)CC[C@@H]4C3CC[C@@]21CC (stereo partly specified)
1.02

Record request: normalized growth value, item "COc1ccc2c(c1)c(CC(=O)OCC(=O)O)c(C)n2C(=O)c1ccc(Cl)cc1"
1.01

Record request: normalized growth value, item "Cc1ccc(-c2cc(C(F)(F)F)nn2-c2ccc(S(N)(=O)=O)cc2)cc1"
0.996

Record request: normalized growth value, item CCC(C)C(=O)O[C@H]1[C@H](O)C2C(CN3CC(C)CCC3[C@@]2(C)O)C2C[C@]34O[C@]5(O)C(OC(=O)C(C)(O)CC)CC[C@@]3(C)C5C(OC(C)=O)[C@@H](OC(C)=O)C4[C@@]21O (stereo partly specified)
1

Record request: normalized growth value, item CC(=O)NC(C(=O)O)C(C)(C)SN=O (stereo unspecified)
0.999

* * *

EXPERIMENT_DESCRIPTION: chemical genetic growth profiling, strain panel (AID 1159580);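 note: tested at 20 µM; growth read once vehicle control cultures reached saturation at 30 °C; 1 = growth at the plate median or of vehicle wells; lower values mean less growth of the strain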
PARTICULARS: S. cerevisiae deletion strains, growth OD, locus YOL006C, strain TOP1, hits give low values
Hit rate of the full screen: of about 5,500 compounds, about 2,000 (36%) were called active. Roughly 18% stayed inconclusive and do not appear here. The list shows a part of the results.
MEASUREMENT_KIND: normalized growth
I'd appreciate a reply containing only the number, no unit.

Record request: normalized growth value, item "COc1ccc(C(=O)CN2CCN(c3cc(C)nc4ccccc34)CC2)cc1"
0.995

Record request: normalized growth value, item "CCOP(=S)(OCC)Oc1cc(C)nc(C(C)C)n1"
0.967

Record request: normalized growth value, item "Cc1cc(O)c2c(c1)Cc1cccc(O)c1C2=O"
0.261

Record request: normalized growth value, item "O=C(N/N=C\c1c(O)ccc2ccccc12)N/N=C\c1c(O)ccc2ccccc12"
0.888

Record request: normalized growth value, item CC(=O)OC1CC[C@@]2(C)C(CC[C@]3(C)C2CCC2C4CC(C)(C)CCC4(C(=O)O)CC[C@]23C)C1(C)C (stereo partly drawn)
1.25

Record request: normalized growth value, item "C/C=C1\[C@H]2C=C(C)C[C@]1(N)c1ccc(=O)[nH]c1C2"
1.05

Record request: normalized growth value, item "Nc1ccccc1C(=O)N/N=C\c1cccc2ccccc12"
0.535

Record request: normalized growth value, item COC(=O)C[C@H]1C(C)(C)C(=O)[C@@H]2CC3C4=CC(=O)O[C@@H](c5ccoc5)[C@]4(C)CCC3[C@@]1(C)C2=O (stereo partly drawn)
0.934

Record request: normalized growth value, item "Cc1cc(OCOc2ccc(Cl)c(C)c2)ccc1Cl"
0.916

Record request: normalized growth value, item C[C@@H]1CC[C@H]2[C@@H](C)C(O)O[C@@H]3O[C@@]4(C)CC[C@@H]1[C@]32OO4 (stereo partly drawn)
0.16

Record request: normalized growth value, item Fc1ccc(C(c2ccccc2)(c2ccccc2F)n2ccnc2)cc1 (stereo not drawn)
0.104

Record request: normalized growth value, item "FC(F)(F)c1cnc(N2CCN(C(=S)Nc3ccccc3)CC2)c(Cl)c1"
0.894

Record request: normalized growth value, item "Cc1cc(O)cc(C)c1Cl"
0.979

Record request: normalized growth value, item "NC(=S)COc1ccccc1Cl"
0.294

Record request: normalized growth value, item C[C@@H]1OC(O[C@H]2[C@H](O)[C@@H](O)[C@H](OC[C@H]3O[C@@H](OC(=O)[C@]45CCC(C)(C)CC4C4=CCC6[C@@]7(C)CC[C@H](OC8OC[C@H](O)[C@H](O)[C@H]8OC8O[C@@H](C)[C@H](O)[C@@H](O)[C@H]8O)[C@@](C)(CO)C7CC[C@@]6(C)[C@]4(C)CC5)[C@H](O)[C@@H](O)[C@@H]3O)O[C@@H]2CO)[C@H](O)[C@H](O)[C@H]1O (stereo partly drawn)
0.946

Record request: normalized growth value, item "O=C(O)c1ccc(N=Cc2ccc3c(c2)OCO3)cc1"
1.04

Record request: normalized growth value, item N#CC(NCc1ccccc1)c1ccc(Cl)c(Cl)c1 (stereo not drawn)
0.982

Record request: normalized growth value, item "O=C(O)/C=C/C(=O)Nc1ccc(-n2nc(C(F)(F)F)cc2C(F)(F)F)cc1"
1.09

Record request: normalized growth value, item "O=C1C(O)=C(O)C(=O)C(O)=C1O"
0.968

Record request: normalized growth value, item C[C@H]1[C@H](C)CC[C@]2(CO)CC[C@]3(C)C(=CCC4[C@@]5(C)CC[C@H](O)C(C)(C)C5CC[C@]43C)[C@H]12 (stereo partly drawn)
1.07

Record request: normalized growth value, item Nc1c2ccccc2nc2ccccc12 (tested in a mixture with another compound)
0.475

Record request: normalized growth value, item "CCOC(=O)NC(=O)c1cn(Cc2cccs2)c(=O)[nH]c1=O"
0.997

Record request: normalized growth value, item "COc1cc(OC)nc(N)n1"
1.01
